Recorded values, source patent US20200147059A1.

Experiment: CNS penetration (brain:plasma ratio)
Assay type: in vivo
Settings: rat, whole brain homogenate and plasma, intravenous; total brain:plasma ratio adjusted for plasma protein binding and brain tissue binding; read-out: unbound (free) brain:plasma ratio
Assay Metric: unbound brain:plasma ratio (Kp,uu)

1. Fc1ccc(-n2c(-c3ccc(N4CCOCC4)nc3)nc3ccncc32)cc1 [Compound 4]: 0.72

* * *

Recorded IC50 by entry
Molecular target: human VAP-1 (SSAO) (Homo sapiens)
Sequence (Q16853 29-763 limits assumed): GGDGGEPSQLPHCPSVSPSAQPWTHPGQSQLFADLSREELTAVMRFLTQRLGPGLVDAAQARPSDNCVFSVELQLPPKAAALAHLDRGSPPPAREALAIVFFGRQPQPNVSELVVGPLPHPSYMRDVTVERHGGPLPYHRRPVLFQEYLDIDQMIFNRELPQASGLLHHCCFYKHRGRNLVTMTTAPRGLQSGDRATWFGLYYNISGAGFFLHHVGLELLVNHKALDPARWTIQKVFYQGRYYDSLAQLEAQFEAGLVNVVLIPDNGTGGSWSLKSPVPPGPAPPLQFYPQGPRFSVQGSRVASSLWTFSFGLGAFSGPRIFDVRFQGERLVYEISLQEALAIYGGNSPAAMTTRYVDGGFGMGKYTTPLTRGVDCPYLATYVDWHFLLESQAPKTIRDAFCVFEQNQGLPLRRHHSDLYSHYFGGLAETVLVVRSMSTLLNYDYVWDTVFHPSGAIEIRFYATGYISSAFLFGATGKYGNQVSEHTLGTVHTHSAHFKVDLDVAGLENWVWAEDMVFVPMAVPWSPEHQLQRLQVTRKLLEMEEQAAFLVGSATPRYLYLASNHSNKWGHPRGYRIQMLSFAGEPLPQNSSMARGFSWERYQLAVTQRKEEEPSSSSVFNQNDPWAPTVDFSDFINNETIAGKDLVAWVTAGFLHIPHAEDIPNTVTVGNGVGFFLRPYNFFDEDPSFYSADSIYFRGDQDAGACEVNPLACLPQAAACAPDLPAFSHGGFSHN
Assay: VAP-1 Inhibition Assay
Details: purified recombinantly expressed human VAP-1 (SSAO), benzylamine substrate, room temperature
Method: This assay is performed at room temperature with purified recombinantly expressed human VAP-1 (SSAO). Enzyme was prepared essentially as described in Ohman et al. (Protein Expression and Purification 46 (2006) 321-331). The enzyme activity is assayed with benzylamine as substrate by measuring either benzaldehyde production, using 14C-labeled substrate, or by utilizing the production of hydrogen peroxide in a horseradish peroxidise (HRP) coupled reaction. […]
Assay Metric: IC50

1) C[C@@](Cc1ccc(O)c(O)c1)(NN)C(=O)O [(S)-Carbidopa, reference compound]: 142 nM
2) C=C(CNN)c1ccccc1 [LJP1207, reference compound]: 34 nM
3) CS(=O)(=O)N1CCN(c2ccc(-c3nc4ccncc4n3-c3ccc(F)cc3)cn2)CC1: 4 nM
4) CC(=O)N1CCN(c2ccc(-c3nc4ccncc4n3-c3ccc(F)cc3)cn2)CC1: 31 nM
5) Fc1ccc(-n2c(-c3ccc(N4CCOCC4)nc3)nc3ccncc32)cc1: 13 nM
